Origin of measurements: a melting point compilation (Tetko et al.)

Readout name: melting point

                         chemical_structure  recorded_measurement
0                     NC(=S)c1ccc2c(c1)CCO2         145 to 155 °C
1  N#CC(C(=O)N1CCOCC1)=C(SCc1ccccc1)SCc1ccccc1                123 °C
2                    Cn1nnc2cc(C(=O)O)ccc21                250 °C
3                    Fc1c(F)c(F)c(S)c(F)c1F                -24 °C

---

Readout name: melting point

In [3]: df
Out[3]:
                                   molecule  recorded_measurement
0  CC1(C)CC2C(C(=O)O1)C2(C)C (stereo not given)           80 to 83 °C
1                   Cc1nc(-c2ccc(CO)cc2)no1         131 to 132 °C
2            CCOC(=O)c1sc(-c2ccc(C)cc2)nc1O         128 to 130 °C
3                          Cc1nc2ccccn2c1Br           73 to 74 °C
4  CCOC(=O)c1c(NC(=S)Nc2ccc(OC)cc2)sc2c1CCCC2         163 to 165 °C
5  CCOC(=O)C(O)(c1ccc(N)c(OC)c1)C(F)(F)F (stereo not given)           97 to 99 °C
6                   Cc1ccc(S(=O)(=O)CCO)cc1           54 to 58 °C
7                      O=C(O)C1(C(=O)O)CCC1         157 to 161 °C
8           Brc1ccc(Oc2c(Br)cc(Br)cc2Br)cc1         134 to 136 °C
9                 Cn1nccc1-c1cccc(C(=O)O)c1         138 to 140 °C

---

Readout name: melting point

>>> df
                                    molecule  recorded_measurement
 0  O=C(N[C@H]1CC=CC[C@H]1C(=O)O)OCc1ccccc1 (relative stereo)         118 to 124 °C
 1        Nc1ccc(Sc2ccc([N+](=O)[O-])cc2)cc1                144 °C
 2                           O=C(O)CC(F)(F)F                9.7 °C
 3                      NC(=O)c1cnc2ccccc2n1                195 °C
 4  CC(C)(C)OC(=O)N1CCCC(O)C1 (stereo not given)                 68 °C
 5               O=c1c(Br)c(Br)cnn1-c1ccccc1         143 to 144 °C
 6                         ClCc1c(Cl)cccc1Cl                 38 °C
 7                          CC(=O)c1ccc(I)s1                128 °C
 8    CCCCCC(=O)OCC(COC(=O)CCCCC)OC(=O)CCCCC                -60 °C
 9  C(=C1c2ccccc2C2C1OC1/C(=C\c3ccccc3)c3ccccc3C12)c1ccccc1 (stereo not given)         214 to 215 °C
10  COc1ccc(-c2ccccc2)cc1NC(=O)C(C(F)(F)F)C(F)(F)F                211 °C
11                 Cc1cc(C(=O)NN)nn1C(C)(C)C           85 to 88 °C
12            C=CCc1cc(OC)c(O)c(C(=O)NCCO)c1                 95 °C
13  c1ccc(-c2ccc(N=C(CNc3ccc(-c4ccccc4)cc3)Nc3ccc(-c4ccccc4)cc3)cc2)cc1                190 °C
14                               O=c1cccccc1                 -7 °C
15        Cc1cc(C(=O)CCl)c(C)n1-c1ccc(Cl)cc1           88 to 89 °C
16                 Cc1cc(C)cc(S(=O)(=O)Cl)c1                 93 °C
17                        CCCCCCCCCCCCCCCCCN                 49 °C
18           O=C(Cl)c1cc2c(Cl)cc(Cl)cc2[nH]1         173 to 175 °C
19                           Nc1cc(Cl)cnc1Cl         124 to 125 °C
20                           Cc1nn(C)c(C)c1I           72 to 74 °C
21                     CCOC(=O)Cc1ccc(Br)cc1                 30 °C
22  Cc1c(Cc2c(C)n(C)n(-c3ccccc3)c2=O)c(=O)n(-c2ccccc2)n1C                155 °C
23                             Oc1ccc(Br)cn1                180 °C
24  O=P(OC(Cl)CCCl)(OC(Cl)CCCl)OC(Cl)CCCl (stereo not given)               26.7 °C
25  O=CNC1CC=CCC(NC=O)CC=CC1 (stereo not given)         289 to 290 °C
26                           FC(F)(F)C(Cl)Cl               -107 °C
27  CC(C)(C)OC(=O)NC(Cc1cccc(F)c1)C(=O)O (stereo not given)                 78 °C
28  CC(/C=C(C)/C=C/c1ccccc1)=NNS(=O)(=O)c1ccc(C)cc1         138 to 142 °C
29          O=C(O)c1c(Cl)c(Cl)c(Cl)c(Cl)c1Cl                209 °C
30    c1ccc(CN2CCCNCCN(Cc3ccccc3)CCCNCC2)cc1                 68 °C
31     O=S(=O)(Cl)c1ccc(S(=O)(=O)c2ccccc2)s1                104 °C
32    NC(CC1CCCCC1)C(=O)O (stereo not given)         322 to 328 °C
33                    Cc1c(Br)sc2ccc(Cl)cc12                106 °C
34  O=C(C=Cc1ccc(Cl)c(Cl)c1)C=Cc1ccc(Cl)c(Cl)c1         175 to 177 °C
35                      Nc1nc(O)nc2c1cnn2CCO         305 to 310 °C
36              COc1c(Cl)c(Cl)c(Cl)c(Cl)c1OC                 90 °C
37  CC1(C)C2CCC1(C)C(/N=C(\C(=O)c1ccccc1)c1ccccc1)C2/N=C(\C(=O)c1ccccc1)c1ccccc1 (stereo not given)                190 °C
38      COC(=O)c1c(C)c2c(c(C(=O)OC)c1C)CC2=O                117 °C
39                    COc1c(Br)cc(C)c2c1CCC2                 30 °C
40                         O=C1CCCCCCCCCCCN1                152 °C
41                         O=C(Cl)c1ccccc1Cl                 -4 °C
42           Cc1cccc(C)c1NC(=O)c1ccc[nH]c1=O                266 °C
43                         COC(=O)CSCCC(N)=S           78 to 81 °C
44     CCOC(=O)/C(=N\Nc1ccccc1)C(=O)C(F)(F)F           80 to 82 °C

---

Readout name: melting point

>>> print(df.to_string())
                                    compound  recorded_measurement
 0                 CC(C)(C)OC(=O)NCc1ccsc1Br           71 to 72 °C
 1                     CC(=O)N(C)c1ccc(N)cc1           70 to 71 °C
 2              C=CCC1(CC=C)C(=O)NC(=O)NC1=O         172 to 173 °C
 3  CCOC(=O)c1cn[nH]c1NC(=O)Nc1ccc(Cl)c(Cl)c1         269 to 270 °C
 4                         Cc1ncnc2[nH]cnc12         235 to 240 °C
 5                Cc1nc(-c2ccc(N=C=O)cc2)cs1           80 to 81 °C
 6         O=Cc1c[nH]c2ccc([N+](=O)[O-])cc12                300 °C
 7             O=C(O)C=CC(=O)Nc1cccc2ccccc12         150 to 153 °C
 8                  O=C=Nc1ccc(-c2ncccn2)cc1       85.5 to 87.5 °C
 9                       CCOC(CC(OCC)OCC)OCC                -90 °C
10  CSCCC(NC(=O)c1ccc(C(F)(F)F)cc1)C(=O)NN (stereo not given)         181 to 184 °C
11                  CN1C(=O)CC[C@H]1c1cccnc1                 41 °C
12                             BrCc1ccccc1Br                 31 °C
13                      CC1(C)CC(=O)OC(=O)C1         122 to 126 °C
14                                  C=COCCCl                -70 °C
